# measured.target: β-catenin (Homo sapiens, UniProt P35222)
# Sequence (P35222 whole entry): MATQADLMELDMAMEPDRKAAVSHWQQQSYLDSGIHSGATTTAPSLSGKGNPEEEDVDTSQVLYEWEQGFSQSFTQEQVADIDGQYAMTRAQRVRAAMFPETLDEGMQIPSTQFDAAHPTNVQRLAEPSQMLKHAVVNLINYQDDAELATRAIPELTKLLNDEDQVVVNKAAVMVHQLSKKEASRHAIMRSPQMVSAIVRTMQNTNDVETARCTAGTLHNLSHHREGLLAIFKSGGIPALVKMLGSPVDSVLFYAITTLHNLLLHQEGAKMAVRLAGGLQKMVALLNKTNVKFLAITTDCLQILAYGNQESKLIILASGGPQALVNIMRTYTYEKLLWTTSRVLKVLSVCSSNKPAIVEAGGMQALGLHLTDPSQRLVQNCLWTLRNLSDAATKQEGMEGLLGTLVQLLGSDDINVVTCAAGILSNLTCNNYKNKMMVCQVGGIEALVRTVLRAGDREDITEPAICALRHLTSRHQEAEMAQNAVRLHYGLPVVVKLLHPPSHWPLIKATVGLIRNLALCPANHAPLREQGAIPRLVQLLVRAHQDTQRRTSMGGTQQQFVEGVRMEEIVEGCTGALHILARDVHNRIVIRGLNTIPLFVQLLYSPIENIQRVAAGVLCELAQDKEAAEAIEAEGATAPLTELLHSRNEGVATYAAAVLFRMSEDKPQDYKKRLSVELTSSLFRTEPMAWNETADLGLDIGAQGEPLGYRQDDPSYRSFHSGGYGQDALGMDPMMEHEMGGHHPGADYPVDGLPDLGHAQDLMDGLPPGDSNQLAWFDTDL
# method.notes: KD50 measurement using competitive fluorescence polarization (FP) with labelled TCF4
# Assay type: binding
# setup.conditions: fluorescence polarization, β-catenin
Where a SMILES comes first, the peptide text is derived from it.
# β-Cat FP Hill slope per entry
# output: bare number, no unit

Completed entries (count: 10):
molecule: CC[C@H](C)[C@@H]1NC(=O)[C@H](CC(C)C)NC(=O)[C@H](Cc2ccccc2)NC(=O)[C@H](Cc2c[nH]c3ccccc23)NC(=O)[C@@H](N)CCCCNC(=O)CN(CC(=O)O)C(=O)[C@H](Cc2c[nH]c3ccccc23)NC(=O)[C@H](C)NC(=O)[C@H](CS)NC1=O
parameter: β-Cat FP Hill slope
observed.result: 0.7

molecule: CC[C@H](C)[C@@H]1NC(=O)[C@H](CC(C)C)NC(=O)[C@H](Cc2ccccc2)NC(=O)[C@H](Cc2c[nH]c3ccccc23)NC(=O)[C@H](CCSC)NC(=O)CCCNC(=O)C[C@@H](C(=O)O)NC(=O)[C@H](Cc2c[nH]c3ccccc23)NC(=O)[C@H](C)NC(=O)[C@H](CS)NC1=O [compound 191] (HELM PEPTIDE1{[O=C(CCCN[*:1])[*:2]].M.W.F.L.I.C.A.W.D}$PEPTIDE1,PEPTIDE1,1:R1-10:R3$$$V2.0)
parameter: β-Cat FP Hill slope
observed.result: 1.3

molecule: CC[C@H](C)[C@H](NC(=O)[C@H](Cc1c[nH]c2ccccc12)NC(=O)[C@@H](N)CCSC)C(=O)N[C@@H](CC(C)C)C(=O)N[C@H](C(=O)N[C@@H](CO)C(=O)NC(C)(Cc1ccccc1)C(=O)N[C@@H](Cc1c[nH]c2ccccc12)C(=O)NCC(=O)O)[C@@H](C)CC (some centres unmarked) [compound 128] (HELM PEPTIDE1{M.W.I.L.I.S.[CC(Cc1ccccc1)(N[*:1])C(=O)[*:2]].W.G}$$$$V2.0)
parameter: β-Cat FP Hill slope
observed.result: 2.15

molecule: CC[C@H](C)[C@@H]1NC(=O)[C@H](Cc2c[nH]cn2)NC(=O)[C@H](CCC(=O)O)NC(=O)[C@H](Cc2ccccc2)NC(=O)[C@H](Cc2c[nH]c3ccccc23)NC(=O)[C@H](CO)NC(=O)[C@H]([C@@H](C)CC)NC(=O)[C@H](C)N(C)C(=O)[C@H](CC(C)C)NC(=O)[C@@H]2CCCN2C(=O)[C@H](CCSC)NC(=O)[C@@H](N)CCCCNC(=O)CNC1=O [compound 29] (HELM PEPTIDE1{K.M.P.L.[meA].I.S.W.F.E.H.I.G}$PEPTIDE1,PEPTIDE1,1:R3-13:R2$$$V2.0; bridges inferred)
parameter: β-Cat FP Hill slope
observed.result: 1.72

molecule: CC[C@H](C)[C@H](NC(=O)[C@H](CC(C)C)NC(=O)[C@H](Cc1ccccc1)NC(=O)[C@H](Cc1c[nH]c2ccccc12)NC)C(=O)N[C@@H](CO)C(=O)N[C@@H](Cc1ccccc1)C(=O)N[C@@H](Cc1c[nH]c2ccccc12)C(=O)O [compound 111] (HELM PEPTIDE1{[meW].F.L.I.S.F.W}$$$$V2.0)
parameter: β-Cat FP Hill slope
observed.result: 2.06

molecule: CC[C@H](C)[C@H](NC(=O)[C@H](CC(C)C)NC(=O)[C@@H](NC(=O)[C@H](Cc1c[nH]c2ccccc12)NC(=O)[C@H](CCSC)N(C)C)[C@@H](C)CC)C(=O)N[C@@H](CO)C(=O)N[C@@H](Cc1ccccc1)C(=O)N[C@@H](Cc1c[nH]c2ccccc12)C(=O)NCC(=O)O [compound 264] (HELM PEPTIDE1{[CSCC[C@@H](C(=O)[*:2])N(C)C].W.I.L.I.S.F.W.G}$$$$V2.0)
parameter: β-Cat FP Hill slope
observed.result: 0.7

molecule: CC[C@H](C)[C@H](NC(=O)[C@H](CC(C)C)NC(=O)[C@H](Cc1ccccc1)NC(=O)[C@H](Cc1c[nH]c2ccccc12)NC(=O)[C@H](CCSC)NC(=O)[C@H](CCCNC(=N)N)NC(=O)[C@H](CO)NC(=O)[C@@H](N)CCSC)C(=O)N[C@@H](CO)C(=O)N[C@@H](Cc1ccccc1)C(=O)N[C@@H](CCCNC(=N)N)C(=O)NCC(=O)O [compound 69] (H-MSRMWFLISFRG-OH)
parameter: β-Cat FP Hill slope
observed.result: 1.64

molecule: CC[C@H](C)[C@H](NC(=O)[C@H](CC(C)C)NC(=O)[C@H](Cc1ccccc1)NC(=O)[C@H](Cc1c[nH]c2ccccc12)NC(=O)[C@@H](N)CCSC)C(=O)N[C@@H](CO)C(=O)N[C@@H](Cc1ccccc1)C(=O)N[C@@H](C)C(=O)NCC(=O)O [compound 8] (H-MWFLISFAG-OH)
parameter: β-Cat FP Hill slope
observed.result: 1.7

molecule: CC[C@H](C)[C@H](NC(=O)[C@H](CC(C)C)NC(=O)[C@@H](NC(=O)[C@@H](N)Cc1c[nH]c2ccccc12)[C@@H](C)CC)C(=O)N[C@@H](C)C(=O)N[C@@H](Cc1ccccc1)C(=O)N[C@@H](Cc1c[nH]c2ccccc12)C(=O)NCC(=O)O [compound 265] (H-WILIAFWG-OH)
parameter: β-Cat FP Hill slope
observed.result: 0.7

molecule: CC[C@H](C)[C@H](NC(=O)[C@H](CC(C)C)NC(=O)[C@H](C)NC(=O)[C@H](Cc1c[nH]c2ccccc12)NC(=O)[C@@H](N)CCSC)C(=O)N[C@@H](CO)C(=O)N[C@@H](Cc1ccccc1)C(=O)N[C@@H](Cc1c[nH]c2ccccc12)C(=O)NCC(=O)O [compound 13] (H-MWALISFWG-OH)
parameter: β-Cat FP Hill slope
observed.result: 0.86

// next entry
Ask | Consider the molecule shown here: CC[C@H](C)[C@H](NC(=O)[C@H](CC(C)C)NC(=O)C(C)(Cc1ccccc1)NC(=O)[C@H](Cc1c[nH]c2ccccc12)NC(=O)[C@@H](N)CCSC)C(=O)N[C@@H](CO)C(=O)N[C@@H](Cc1ccccc1)C(=O)N[C@@H](Cc1c[nH]c2ccccc12)C(=O)NCC(=O)O (some centres unmarked) [compound 133] (HELM PEPTIDE1{M.W.[CC(Cc1ccccc1)(N[*:1])C(=O)[*:2]].L.I.S.F.W.G}$$$$V2.0) What is its recorded β-Cat FP Hill slope?
Reply | 3

Recorded values, source patent US12441768B2.
